- Tested on: Carposina sasakii GSTs
- Assay name: Inhibition of total GSTs enzyme of Carposina sasakii (CDNB method)
- Format: biochemical
- Condition description: 100 μM
Please use 1 for 100 μM Inhibition rate % under 20% and -1 for everything else, ties included.

Worked examples follow.
>>> df
                                   compound             measured_on  category
0  CC1(CCc2ccccc2)NC(=O)N(NC(=O)c2cc(-c3ccccc3)nn2-c2ccccc2)C1=O (centres unmarked)  Carposina sasakii GSTs         1
1  O=C(COc1ccccc1)NNC(=O)c1cc(-c2ccccc2)nn1-c1ccccc1  Carposina sasakii GSTs        -1
2  O=C(CC12C[C@H]3C[C@H](C1)C[C@@H](C2)C3)NNC(=O)c1cc(-c2ccccc2)nn1-c1ccccc1  Carposina sasakii GSTs         1
3  O=C(CNc1ccccc1)NNC(=O)c1cc(-c2ccccc2)nn1-c1ccccc1  Carposina sasakii GSTs        -1
4  CC1CCC2(CC1)NC(=O)N(NC(=O)c1cc(-c3ccccc3)nn1-c1ccccc1)C2=O (centres unmarked)  Carposina sasakii GSTs         1

Now take the following compound into account.
Identify whether the compound COc1ccccc1CC(=O)NNC(=O)c1cc(-c2ccccc2)nn1-c1ccccc1 records 100 μM Inhibition rate % below 20%. -1

====

List of inhibition at 100 µM values.
- Measured on: PxGSTδ1 (Plutella xylostella)
- Sequence (D7URW9 entry or part of it): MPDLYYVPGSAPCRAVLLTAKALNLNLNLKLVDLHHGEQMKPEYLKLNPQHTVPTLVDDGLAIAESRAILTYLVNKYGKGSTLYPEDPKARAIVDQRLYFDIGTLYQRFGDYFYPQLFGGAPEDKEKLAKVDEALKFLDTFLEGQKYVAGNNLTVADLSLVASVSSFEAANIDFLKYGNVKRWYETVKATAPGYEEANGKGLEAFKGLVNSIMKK
- Assay name: Inhibition of PxGSTδ1 recombinant protein
- Assay type: biochemical
- Condition description: read-out: 100 μM Inhibition rate %
Kindly provide the numeric value in % only, without the unit symbol.

Example entries and their recorded answers appear below.
>>> df
                                   molecule    measured_attribute  measured_result
0  Cc1csc(CC(=O)NNC(=O)c2cc(-c3ccccc3)nn2-c2ccccc2)n1  inhibition at 100 µM             87.8
1  COc1cc(C(=O)NNC(=O)c2cc(-c3ccccc3)nn2-c2ccccc2)cc(OC)c1OC  inhibition at 100 µM             18.4
2  CCn1c(C)nc2cc(C(=O)NNC(=O)c3cc(-c4ccccc4)nn3-c3ccccc3)ccc21  inhibition at 100 µM             7.82
3  O=C(CNc1ccccc1)NNC(=O)c1cc(-c2ccccc2)nn1-c1ccccc1  inhibition at 100 µM             72.4
4  CC1(CCc2ccccc2)NC(=O)N(NC(=O)c2cc(-c3ccccc3)nn2-c2ccccc2)C1=O (stereo not shown)  inhibition at 100 µM             7.86
5  O=C(NNC(=O)c1cc(-c2ccccc2)nn1-c1ccccc1)c1cc[nH]c(=O)c1  inhibition at 100 µM             68.9
6  CN(C)S(=O)(=O)c1ccc(C(=O)NNC(=O)c2cc(-c3ccccc3)nn2-c2ccccc2)cc1  inhibition at 100 µM             16.7
7  O=C(NNC(=O)c1cc(-c2ccc(Cl)cc2)nn1-c1ccccc1)c1cccnc1  inhibition at 100 µM             55.7

# inhibition at 100 µM of O=C(COc1ccccc1)NNC(=O)c1cc(-c2ccccc2)nn1-c1ccccc1 = 81.7

Please fill in: inhibition at 100 µM reported for O=C(NNC(=O)c1cc(-c2ccccc2)nn1-c1ccccc1)c1cc(=O)[nH]c2ccccc12 = 78.8
